Parameter LDH (OD): see the listing below.
Tested on: lactate dehydrogenase (LDH)
Measurement description: phage ELISA, 405 nm; LDH coated
Form entry: enter the amount, then its unit.

binder="RFWSVSYQGGRVMCREWGYCLPIAAAGAPVPYPDPLEPRP (peptide, not shown: large carriers) [DGI-2-40F-3-C92]" observed_measurement="0.8 OD"
binder="FSSTGILLRSGRATAVGHVTAAAGAPVPYPDPLEPRP (peptide, not shown: large carriers) [DGI-2-20F-3-A6]" observed_measurement="1.1 OD"

// next item, LDH (OD) requested
Prompt: Given the entry DGI-2-40F-3-B95 (peptide, not shown: large carriers) peptide: DYKTCVSQHVHPLFGEYFYHKVTHMSILSPTFRVTSLYGKAAAGAPVPYPDPLEPRP , report its measured LDH (OD).
Response: 0.8 OD
